// reported PBM binding z-score per item
# Tested on: PPARg:RXRa 270nM:90nM, anti-RXR (NR concentration 270 nM, RXRa partner concentration 90 nM)
# assayProtocol: PBM binding z-score (relative to random genomic background probes); higher = stronger binding; sequences stand for … in GC…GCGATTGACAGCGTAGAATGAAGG
Answer with the value's number alone.

AGAACGAGGGCAATGAGTTGGTAGCACGGGTGGC = 0.772
CGTCCAAGGTCAGAGAGGTCAGTAAATGCCGAGT = 4.16

Consider the record given below.
Req: I'd like to know its PBM binding z-score. The sequence in question is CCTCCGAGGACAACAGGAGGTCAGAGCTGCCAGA
Resp: 0.211

* * *

# Tested on: PPARg:RXRa 270nM:90nM, anti-RXR (NR concentration 270 nM, RXRa partner concentration 90 nM)
# assayProtocol: PBM binding z-score (relative to random genomic background probes); higher = stronger binding; sequences stand for … in GC…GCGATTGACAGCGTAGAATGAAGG
valueKind: PBM binding z-score
Answer with the value's number alone.

Please review the entries below; each comes with its answer.
TGTCAAAGTTCACAGGTAACGTAAGTATCCACAC = 7.43
CATACAGGGTCAGCTAGGACAGAGTAGGGACGGC = 2.87

Consider the record given below.
Req: I'd like to know its PBM binding z-score. The sequence in question is GCTTGGAGGACAAGGTCAGAGCTTTGTCCGTAGA
Resp: 1.88

* * *

// reported PBM binding z-score per item
# System: RARg homodimer (NR concentration 270 nM)
# assayProtocol: PBM binding z-score (relative to random genomic background probes); higher = stronger binding; sequences stand for … in GC…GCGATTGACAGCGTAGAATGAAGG
Answer with the value's number alone.

GATACAGGGTCAGCTAGAGGCCAGAGGATGGAAA = 4.81

Req: I'd like to know its PBM binding z-score. The sequence in question is GATACAGGGTTAAGGCCAGAGTACGCGTATTGAT
Resp: 1.1

Req: I'd like to know its PBM binding z-score. The sequence in question is TTACCACGGTGAAGGTCGTTGATCCCTCTGTAGA
Resp: 0.382

Req: I'd like to know its PBM binding z-score. The sequence in question is GCTGCTAGGTCATCTGATGGTCAGCTAAAGCTCG
Resp: 4.96

Req: I'd like to know its PBM binding z-score. The sequence in question is TAGCCTAGGGCATTGGGCCAGTATAGTACGCATC
Resp: 1.21

Req: I'd like to know its PBM binding z-score. The sequence in question is TCTTGTAGATCAATAGACGTTAAGAAAGTGCGCT
Resp: 0.0391

* * *

// reported PBM binding z-score per item
# Test system: RARb homodimer (NR concentration 270 nM)
# assayProtocol: PBM binding z-score (relative to random genomic background probes); higher = stronger binding; sequences stand for … in GC…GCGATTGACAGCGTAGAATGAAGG
Answer with the value's number alone.

Please review the entries below; each comes with its answer.
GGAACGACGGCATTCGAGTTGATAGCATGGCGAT = -1.09
ATCTCTAGGGAAAGTTCAGTGAAAGATCGATAGA = 2.2

Req: I'd like to know its PBM binding z-score. The sequence in question is CCTAGTTGGTCAAGGTCACACAGGCTATAGGTAC
Resp: 4.45

Req: I'd like to know its PBM binding z-score. The sequence in question is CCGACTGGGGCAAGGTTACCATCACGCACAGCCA
Resp: 1.61

Req: I'd like to know its PBM binding z-score. The sequence in question is CGAACGAGGGCATGAGTTGCTAGCAAATGCCGAT
Resp: 0.64

Req: I'd like to know its PBM binding z-score. The sequence in question is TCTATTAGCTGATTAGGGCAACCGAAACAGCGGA
Resp: -0.0375

* * *

# System: PPARg:RXRa DBDmut IVT, anti-RXR (DBD mutation: RXRa K156A/R161A, NR concentration 270 nM, RXRa partner concentration 90 nM)
# assayProtocol: PBM binding z-score (relative to random genomic background probes); higher = stronger binding; sequences stand for … in GC…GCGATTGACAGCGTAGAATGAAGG
# label = y if PBM binding z-score >= 0.7 else n

Example entries begin here.
CCAGACTGGTGAAAGGTAACTCAGTCTGGTACGC = n
CGTCCAAGGTCAGCACGTCAGTGAAAGCGACGTG = y

Req: Threshold query (PBM binding z-score >= 0.7) on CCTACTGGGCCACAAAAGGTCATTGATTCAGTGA
Resp: y

Req: Threshold query (PBM binding z-score >= 0.7) on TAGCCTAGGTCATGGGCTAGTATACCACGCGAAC
Resp: y

Req: Threshold query (PBM binding z-score >= 0.7) on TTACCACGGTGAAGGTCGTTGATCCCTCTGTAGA
Resp: n

Req: Threshold query (PBM binding z-score >= 0.7) on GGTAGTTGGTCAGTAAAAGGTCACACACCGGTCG
Resp: y

Req: Threshold query (PBM binding z-score >= 0.7) on TCTATTAGTTGAATGGCAACCGACGAGTCCGTTT
Resp: y

Req: Threshold query (PBM binding z-score >= 0.7) on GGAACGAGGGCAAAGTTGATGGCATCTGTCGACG
Resp: y

Req: Threshold query (PBM binding z-score >= 0.7) on GCTAGCAGGCCATTTGGGTCACTCTATGACGGGC
Resp: y

Req: Threshold query (PBM binding z-score >= 0.7) on ATATGTAGGTTGCATCCGGGTCATTCAGGCTATG
Resp: y

Req: Threshold query (PBM binding z-score >= 0.7) on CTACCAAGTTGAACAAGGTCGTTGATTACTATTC
Resp: y

Req: Threshold query (PBM binding z-score >= 0.7) on ACTATTAGTTGAGACGAGGGCAACTGATAGGTTG
Resp: n

* * *

# Tested on: PXR homodimer (NR concentration 270 nM)
# assayProtocol: PBM binding z-score (relative to random genomic background probes); higher = stronger binding; sequences stand for … in GC…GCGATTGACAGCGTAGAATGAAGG
# label = YES if PBM binding z-score >= 1 else NO

Example entries begin here.
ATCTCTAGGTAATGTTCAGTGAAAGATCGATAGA = NO
CCTACTGGGCCAAAAGGGTCATTGATGCCGATAA = NO
ATCGAAAGGTCGTCAGGTGAGTATACAGAAAGGC = NO
CCTACCGGGCCAAAAAGGTCATTGATGCCGATAA = YES

Req: Threshold query (PBM binding z-score >= 1) on CCAGGCAGGTGAAAGGTAACTCAGTCTGGTACGC
Resp: NO

Req: Threshold query (PBM binding z-score >= 1) on AGAACGAGGTTATACGTAGATCAGGGAAGAAAGT
Resp: NO

Req: Threshold query (PBM binding z-score >= 1) on TCATAGAGGTAATACAGGTGAAAGTCGGCATCTA
Resp: NO

Req: Threshold query (PBM binding z-score >= 1) on GAAACGAGGGCAAAGTTGATAGCATCTGTCGACG
Resp: NO

Req: Threshold query (PBM binding z-score >= 1) on CCTACTGGGCCACGAAAGGTCATTGACTCAGTGA
Resp: YES

Req: Threshold query (PBM binding z-score >= 1) on CCTGCTAGGTCATGGTCAGCTAATCTACAGTATG
Resp: NO

Req: Threshold query (PBM binding z-score >= 1) on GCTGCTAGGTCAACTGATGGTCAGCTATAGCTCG
Resp: NO

Req: Threshold query (PBM binding z-score >= 1) on ACTATTAGCTGACTTAGGGCAACCGATACGACGC
Resp: NO

Req: Threshold query (PBM binding z-score >= 1) on ATCGGAAGGTCGACGAGGTGAGTATACACCGTTT
Resp: NO

Req: Threshold query (PBM binding z-score >= 1) on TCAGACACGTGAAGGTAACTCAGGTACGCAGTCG
Resp: NO

Req: Threshold query (PBM binding z-score >= 1) on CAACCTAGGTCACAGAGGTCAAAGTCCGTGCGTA
Resp: YES

Req: Threshold query (PBM binding z-score >= 1) on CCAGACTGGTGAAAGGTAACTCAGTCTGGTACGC
Resp: NO

Req: Threshold query (PBM binding z-score >= 1) on TCGAGTAGGTTACCAATGGGGCATTCGGCTTTCT
Resp: NO

Req: Threshold query (PBM binding z-score >= 1) on ATATGTAGGTTATCGGGTCATTCACTTTGCGCAT
Resp: YES

Req: Threshold query (PBM binding z-score >= 1) on AGTCAAAGTTCATTAGGTAACGTAAGATTCAGCT
Resp: YES

Req: Threshold query (PBM binding z-score >= 1) on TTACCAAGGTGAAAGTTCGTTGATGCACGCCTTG
Resp: YES

Req: Threshold query (PBM binding z-score >= 1) on CAAACTAGGACACAGAGGTCAAAGTCCGTGCGTA
Resp: YES

Req: Threshold query (PBM binding z-score >= 1) on GCTGCTAGGTCGGGTTGGTCAGCTAACGGGTACG
Resp: NO

Req: Threshold query (PBM binding z-score >= 1) on CCTTACGCGTCACTCCAGGTTATAGCATCGGAGT
Resp: NO

Req: Threshold query (PBM binding z-score >= 1) on CCGACTGGGGCAGAAAGGTTCCCATACCATCCGG
Resp: NO

Req: Threshold query (PBM binding z-score >= 1) on CGAACTAGGTCAGAACAGGACAGTGACGGATGAT
Resp: NO

Req: Threshold query (PBM binding z-score >= 1) on CGTTCAAGGTCAGCAGGTCAGTGAAAGCGACGTG
Resp: YES
